Form field: growth (one value per entry).
System: UACC-257 melanoma
Assay: NCI-60 one-dose screen, 48 h (100 = growth as untreated, 0 = no growth, -100 = all killed)
Conditions: 10 µM unless noted
Protocol: Cells are grown in 96 well plates and exposed to the test compound for 48 hours. Compounds are tested at a single concentration, which is 10^-5 M for most compounds. The reported endpoint is percent growth (GI% or GIPRCNT), where numbers from 0 - 100% represent growth inhibition, and numbers from -100% - 0 represent cell death. For example, a value of 40 represents 60% growth inhibition. A value of 0 means no net growth occurred over the course of the experiment. […]
Compounds without any hit were thinned out: in the full panel of roughly 83,000, 20% have a hit.
Express it in %; write the number only.

Solved entries:
Compound: COc1cccc(-c2nn(-c3ccccc3)cc2-c2ccnc(NCCCNC(=O)c3ccccc3)c2)c1
Unit string: %
growth: 40.7
//
Compound: N#CC1=C(NC=O)Oc2c(ccc3ccccc23)C1c1ccccc1 (stereo not drawn)
Unit string: %
growth: 41.5
//
Compound: COC(=O)[C@]12CC[C@@H](C)[C@H](C)[C@@H]1C1=CC[C@@H]3[C@@]4(C)C(C=O)=C[C@@](C)(COC(C)=O)C4=CC[C@@]3(C)[C@]1(C)CC2
Unit string: %
growth: -41.3
//
Compound: Cc1cc(N2CCCC2)nc(NCc2cc(Nc3ccnc4cc(Cl)ccc34)ccc2F)n1
Unit string: %
growth: -64

Reported growth of COC(=O)c1ccc(C2Nc3ccc(S(=O)(=O)Nc4ccc(C)c(C)c4)cc3C3OCCC23)cc1 (stereo not drawn) : 79.6

For N#Cc1c(-c2ccccn2)[nH]c(=S)[nH]c1=O the compound record lists growth as 109

Per the record, Cc1cc(NCc2cc(Nc3ccnc4cc(Cl)ccc34)ccc2F)nc(N2CCCC2)n1 has growth of -17.8

So for COc1ccc(C(=O)COc2ccc(/C=C3\Oc4ccccc4C3=O)cc2)cc1 , the logged growth turned out to be 97.8
